Experiment: Ex vivo biodistribution in PC-3 tumor-bearing mice
Conditions: male, NRG, mouse, PC-3 tumor, iv, total radioactivity, Biodistribution PC3 tumor Mean, 1 h post-injection, mice bearing PC-3 tumor xenografts, n = 4
Numbered stars: 1 amine (or outer) side, 2 acyl side, 3 side chain; on linkers, the order of the positions; unused ones are H or OH. Square brackets hold non-standard residues; d marks the D form. Peptide text beside a SMILES is read from it. * marks the point of attachment. DOTA = O=C(O)CN1CCN(CC(=O)O)CCN(CC(=O)*)CCN(CC(=O)O)CC1; Leuψ(CH2N)ThzNH2 = CC(C)C[C@@H](CN1CSC[C@H]1C(N)=O)N*; X1 = O=C(CN1CCC(N[*:1])CC1)[*:2]
measurement kind: tissue uptake at 1 h
Note to self: number, then unit, no commentary.

Output tissue uptake at 1 h of CC(C)C[C@@H](CN1CSC[C@H]1C(N)=O)NC(=O)[C@H](Cc1c[nH]cn1)NC(=O)CNC(=O)[C@@H](NC(=O)[C@H](C)NC(=O)[C@H](Cc1c[nH]c2ccccc12)NC(=O)[C@H](Cc1c[nH]cn1)NC(=O)[C@@H](Cc1ccccc1)NC(=O)CN1CCC(NC(=O)CN2CCN(CC(=O)O)CCN(CC(=O)O)CCN(CC(=O)O)CC2)CC1)C(C)C [^68Ga-LW01102, metal not drawn] ({DOTA}-[X1][dF]HWAVGH-{Leuψ(CH2N)ThzNH2}) 7.46 %ID/g

---

Experiment: in vivo
Details: male, NRG, mouse, iv, total radioactivity, Biodistribution Heart Mean
Numbered stars: 1 amine (or outer) side, 2 acyl side, 3 side chain; on linkers, the order of the positions; unused ones are H or OH. Square brackets hold non-standard residues; d marks the D form. Peptide text beside a SMILES is read from it. * marks the point of attachment. DOTA = O=C(O)CN1CCN(CC(=O)O)CCN(CC(=O)*)CCN(CC(=O)O)CC1; Leuψ(CH2N)ThzNH2 = CC(C)C[C@@H](CN1CSC[C@H]1C(N)=O)N*; NMeH = CN[C@@H](Cc1c[nH]cn1)C(=O)O; X1 = O=C(CN1CCC(N[*:1])CC1)[*:2]; Tle = CC(C)(C)[C@H](N)C(=O)O; Thz = O=C(O)[C@@H]1CSCN1
Kindly supply the reported tissue uptake at 1 h values for the records listed here.
Note to self: number, then unit, no commentary.

CC(C)C[C@H](NC(=O)[C@H](Cc1cnc[nH]1)N(C)C(=O)CNC(=O)[C@@H](NC(=O)[C@H](C)NC(=O)[C@H](Cc1c[nH]c2ccccc12)NC(=O)[C@H](Cc1c[nH]cn1)NC(=O)[C@@H](Cc1ccccc1)NC(=O)CN1CCC(NC(=O)CN2CCN(CC(=O)O)CCN(CC(=O)O)CCN(CC(=O)O)CC2)CC1)C(C)(C)C)C(=O)N1CSC[C@H]1C(N)=O [^68Ga-LW01142, metal not drawn] ({DOTA}-[X1][dF]HWA[Tle]G[NMeH]L[Thz]-NH2)
1.62 %ID/g
CC(C)C[C@H](NC(=O)[C@H](Cc1cnc[nH]1)N(C)C(=O)CNC(=O)[C@@H](NC(=O)[C@H](C)NC(=O)[C@H](Cc1c[nH]c2ccccc12)NC(=O)[C@H](CCC(N)=O)NC(=O)[C@@H](Cc1ccccc1)NC(=O)CN1CCC(NC(=O)CN2CCN(CC(=O)O)CCN(CC(=O)O)CCN(CC(=O)O)CC2)CC1)C(C)(C)C)C(=O)N1CSC[C@H]1C(N)=O [^68Ga-LW01110, metal not drawn]
0.23 %ID/g
CC(C)C[C@@H](CN1CSC[C@H]1C(N)=O)NC(=O)[C@H](Cc1c[nH]cn1)NC(=O)CNC(=O)[C@@H](NC(=O)[C@H](C)NC(=O)[C@H](Cc1c[nH]c2ccccc12)NC(=O)[C@H](CCC(N)=O)NC(=O)[C@@H](Cc1ccccc1)NC(=O)CN1CCC(NC(=O)CN2CCN(CC(=O)O)CCN(CC(=O)O)CCN(CC(=O)O)CC2)CC1)C(C)(C)C [^68Ga-LW01158, metal not drawn] ({DOTA}-[X1][dF]QWA[Tle]GH-{Leuψ(CH2N)ThzNH2})
0.34 %ID/g

# ---- query compound ----
Output tissue uptake at 1 h of CC(C)C[C@H](NC(=O)[C@H](Cc1c[nH]cn1)NC(=O)CNC(=O)[C@@H](NC(=O)[C@H](C)NC(=O)[C@H](Cc1c[nH]c2ccccc12)NC(=O)[C@H](CCC(N)=O)NC(=O)[C@@H](Cc1ccccc1)NC(=O)CN1CCC(NC(=O)CN2CCN(CC(=O)O)CCN(CC(=O)O)CCN(CC(=O)O)CC2)CC1)C(C)(C)C)C(=O)N1CSC[C@H]1C(N)=O [^68Ga-LW01108, metal not drawn] 0.18 %ID/g

---

Test: Ex vivo biodistribution in PC-3 tumor-bearing mice
Details: male, NRG, mouse, liver, iv, total radioactivity, Biodistribution Liver Mean, 1 h post-injection, mice bearing PC-3 tumor xenografts, n = 4
Numbered stars: 1 amine (or outer) side, 2 acyl side, 3 side chain; on linkers, the order of the positions; unused ones are H or OH. Square brackets hold non-standard residues; d marks the D form. Peptide text beside a SMILES is read from it. * marks the point of attachment. DOTA = O=C(O)CN1CCN(CC(=O)O)CCN(CC(=O)*)CCN(CC(=O)O)CC1; Leuψ(CH2N)ThzNH2 = CC(C)C[C@@H](CN1CSC[C@H]1C(N)=O)N*; X1 = O=C(CN1CCC(N[*:1])CC1)[*:2]
measurement kind: tissue uptake at 1 h (%ID/g)
Numbers only, in %ID/g.

Some compounds with recorded tissue uptake at 1 h:
CC(C)C[C@@H](CN1CSC[C@H]1C(N)=O)NC(=O)[C@H](Cc1cnc[nH]1)NC(=O)CN(C)C(=O)[C@@H](NC(=O)[C@H](C)NC(=O)[C@H](Cc1c[nH]c2ccccc12)NC(=O)[C@H](CCC(N)=O)NC(=O)[C@@H](Cc1ccccc1)NC(=O)CN1CCC(NC(=O)CN2CCN(CC(=O)O)CCN(CC(=O)O)CCN(CC(=O)O)CC2)CC1)C(C)C [^68Ga-LW01090, metal not drawn]
0.64
CC(C)C[C@H](NC(=O)[C@H](Cc1c[nH]cn1)NC(=O)CNC(=O)[C@@H](NC(=O)[C@H](C)NC(=O)[C@H](Cc1c[nH]c2ccccc12)NC(=O)[C@H](CCC(N)=O)NC(=O)[C@@H](Cc1ccccc1)NC(=O)CN1CCC(NC(=O)CN2CCN(CC(=O)O)CCN(CC(=O)O)CCN(CC(=O)O)CC2)CC1)C(C)C)C(=O)N1CSC[C@H]1C(N)=O [^68Ga-LW01025, metal not drawn]
0.29

Can you give me tissue uptake at 1 h for all of these, one by one?
1. CC(C)C[C@H](NC(=O)[C@H](Cc1c[nH]cn1)NC(=O)CNC(=O)[C@@H](NC(=O)[C@H](C)NC(=O)[C@H](Cc1c[nH]c2ccccc12)NC(=O)[C@H](CCC(N)=O)NC(=O)[C@@H](Cc1ccc2ccccc2c1)NC(=O)CN1CCC(NC(=O)CN2CCN(CC(=O)O)CCN(CC(=O)O)CCN(CC(=O)O)CC2)CC1)C(C)C)C(=O)N1CSC[C@H]1C(N)=O [^68Ga-LW01029, metal not drawn]
2. CC(C)C[C@@H](CN1CSC[C@H]1C(N)=O)NC(=O)[C@H](Cc1c[nH]cn1)NC(=O)CNC(=O)[C@@H](NC(=O)[C@H](C)NC(=O)[C@H](Cc1c[nH]c2ccccc12)NC(=O)[C@H](Cc1c[nH]cn1)NC(=O)[C@@H](Cc1ccccc1)NC(=O)CN1CCC(NC(=O)CN2CCN(CC(=O)O)CCN(CC(=O)O)CCN(CC(=O)O)CC2)CC1)C(C)C [^68Ga-LW01102, metal not drawn] ({DOTA}-[X1][dF]HWAVGH-{Leuψ(CH2N)ThzNH2})

0.63
3.22

---

Kindly supply the reported tissue uptake at 1 h values for the records listed here.
Assay: Ex vivo biodistribution in PC-3 tumor-bearing mice
Conditions: male, NRG, mouse, pancreas, iv, total radioactivity, Biodistribution Pancreas Mean, 1 h post-injection, mice bearing PC-3 tumor xenografts, n = 4
Numbered stars: 1 amine (or outer) side, 2 acyl side, 3 side chain; on linkers, the order of the positions; unused ones are H or OH. Square brackets hold non-standard residues; d marks the D form. Peptide text beside a SMILES is read from it. * marks the point of attachment. DOTA = O=C(O)CN1CCN(CC(=O)O)CCN(CC(=O)*)CCN(CC(=O)O)CC1; Leuψ(CH2N)ThzNH2 = CC(C)C[C@@H](CN1CSC[C@H]1C(N)=O)N*; X1 = O=C(CN1CCC(N[*:1])CC1)[*:2]

Some compounds with recorded tissue uptake at 1 h:
CC(C)C[C@@H](CN1CSC[C@H]1C(N)=O)NC(=O)[C@H](Cc1c[nH]cn1)NC(=O)CNC(=O)[C@@H](NC(=O)[C@H](C)NC(=O)[C@H](Cc1c[nH]c2ccccc12)NC(=O)[C@H](CCC(N)=O)NC(=O)[C@@H](Cc1ccccc1)NC(=O)CN1CCC(NC(=O)CN2CCN(CC(=O)O)CCN(CC(=O)O)CCN(CC(=O)O)CC2)CC1)C(C)C [^68Ga-LW01045, metal not drawn]
2.81 %ID/g
CC(C)C[C@@H](CN1CSC[C@H]1C(N)=O)NC(=O)[C@H](Cc1cnc[nH]1)NC(=O)CN(C)C(=O)[C@@H](NC(=O)[C@H](C)NC(=O)[C@H](Cc1c[nH]c2ccccc12)NC(=O)[C@H](CCC(N)=O)NC(=O)[C@@H](Cc1ccccc1)NC(=O)CN1CCC(NC(=O)CN2CCN(CC(=O)O)CCN(CC(=O)O)CCN(CC(=O)O)CC2)CC1)C(C)C [^68Ga-LW01090, metal not drawn]
1.98 %ID/g
CC(C)C[C@@H](CN1CSC[C@H]1C(N)=O)NC(=O)[C@H](Cc1c[nH]cn1)NC(=O)CNC(=O)[C@@H](NC(=O)[C@H](C)NC(=O)[C@H](Cc1c[nH]c2ccccc12)NC(=O)[C@H](Cc1c[nH]cn1)NC(=O)[C@@H](Cc1ccccc1)NC(=O)CN1CCC(NC(=O)CN2CCN(CC(=O)O)CCN(CC(=O)O)CCN(CC(=O)O)CC2)CC1)C(C)C [^68Ga-LW01102, metal not drawn] ({DOTA}-[X1][dF]HWAVGH-{Leuψ(CH2N)ThzNH2})
13.1 %ID/g
CC(C)C[C@@H](CN1CSC[C@H]1C(N)=O)NC(=O)[C@H](Cc1c[nH]cn1)NC(=O)CNC(=O)[C@@H](NC(=O)[C@H](C)NC(=O)[C@H](Cc1c[nH]c2ccccc12)NC(=O)[C@H](CCC(N)=O)NC(=O)[C@@H](Cc1ccc2ccccc2c1)NC(=O)CN1CCC(NC(=O)CN2CCN(CC(=O)O)CCN(CC(=O)O)CCN(CC(=O)O)CC2)CC1)C(C)C [^68Ga-LW01059, metal not drawn]
7.26 %ID/g

Output tissue uptake at 1 h of CC(C)C[C@@H](CN1CCC[C@H]1C(N)=O)NC(=O)[C@H](Cc1c[nH]cn1)NC(=O)CN(C)C(=O)[C@@H](NC(=O)[C@H](C)NC(=O)[C@H](Cc1c[nH]c2ccccc12)NC(=O)[C@H](CCC(N)=O)NC(=O)[C@@H](Cc1ccccc1)NC(=O)CN1CCC(NC(=O)CN2CCN(CC(=O)O)CCN(CC(=O)O)CCN(CC(=O)O)CC2)CC1)C(C)C [^68Ga-LW02045, metal not drawn] 1.37 %ID/g
